- tested.system: wild-type UBA6 (Homo sapiens, UniProt A0AVT1)
- Sequence (A0AVT1 1-1052): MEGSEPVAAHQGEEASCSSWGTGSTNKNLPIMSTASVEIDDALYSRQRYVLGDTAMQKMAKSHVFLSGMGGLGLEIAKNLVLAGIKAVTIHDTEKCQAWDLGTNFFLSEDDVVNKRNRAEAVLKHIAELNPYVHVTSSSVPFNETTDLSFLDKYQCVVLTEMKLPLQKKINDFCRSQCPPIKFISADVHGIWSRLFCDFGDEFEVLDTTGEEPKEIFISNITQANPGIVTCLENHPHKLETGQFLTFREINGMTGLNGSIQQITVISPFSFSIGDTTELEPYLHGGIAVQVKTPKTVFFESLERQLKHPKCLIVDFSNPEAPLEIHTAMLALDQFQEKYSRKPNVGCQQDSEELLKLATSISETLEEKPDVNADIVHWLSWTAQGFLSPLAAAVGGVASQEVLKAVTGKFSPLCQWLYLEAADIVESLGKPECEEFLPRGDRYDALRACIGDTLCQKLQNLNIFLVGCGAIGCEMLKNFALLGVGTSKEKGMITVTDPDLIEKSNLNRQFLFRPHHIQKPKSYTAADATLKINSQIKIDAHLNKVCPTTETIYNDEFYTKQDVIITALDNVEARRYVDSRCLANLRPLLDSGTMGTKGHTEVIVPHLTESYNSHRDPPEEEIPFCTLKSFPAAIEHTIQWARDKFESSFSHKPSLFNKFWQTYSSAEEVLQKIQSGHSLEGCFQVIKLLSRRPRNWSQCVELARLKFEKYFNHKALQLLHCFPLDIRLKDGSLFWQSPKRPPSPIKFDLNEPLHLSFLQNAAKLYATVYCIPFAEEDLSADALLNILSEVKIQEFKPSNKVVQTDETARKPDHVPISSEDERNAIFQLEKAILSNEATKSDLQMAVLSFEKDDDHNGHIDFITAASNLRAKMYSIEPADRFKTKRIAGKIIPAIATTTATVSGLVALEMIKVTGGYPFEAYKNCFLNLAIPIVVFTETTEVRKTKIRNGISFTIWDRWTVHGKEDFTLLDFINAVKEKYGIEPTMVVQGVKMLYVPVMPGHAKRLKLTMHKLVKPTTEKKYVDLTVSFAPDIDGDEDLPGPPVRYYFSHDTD
observable: IC50 (µM)
Answer with a number only, understood to be in µM.

q: I have this compound here, NS(=O)(=O)OC[C@@H]1C[C@@H](n2ccc3c(N[C@H]4CCc5ccccc54)ncnc32)C[C@@H]1O , and I need its recorded IC50.
a: 6.2

All values here come from patent US20170107579A1.
